Parameter IC50, tested on FLT3 (Homo sapiens), listed per item.
Sequence (P36888 27-993): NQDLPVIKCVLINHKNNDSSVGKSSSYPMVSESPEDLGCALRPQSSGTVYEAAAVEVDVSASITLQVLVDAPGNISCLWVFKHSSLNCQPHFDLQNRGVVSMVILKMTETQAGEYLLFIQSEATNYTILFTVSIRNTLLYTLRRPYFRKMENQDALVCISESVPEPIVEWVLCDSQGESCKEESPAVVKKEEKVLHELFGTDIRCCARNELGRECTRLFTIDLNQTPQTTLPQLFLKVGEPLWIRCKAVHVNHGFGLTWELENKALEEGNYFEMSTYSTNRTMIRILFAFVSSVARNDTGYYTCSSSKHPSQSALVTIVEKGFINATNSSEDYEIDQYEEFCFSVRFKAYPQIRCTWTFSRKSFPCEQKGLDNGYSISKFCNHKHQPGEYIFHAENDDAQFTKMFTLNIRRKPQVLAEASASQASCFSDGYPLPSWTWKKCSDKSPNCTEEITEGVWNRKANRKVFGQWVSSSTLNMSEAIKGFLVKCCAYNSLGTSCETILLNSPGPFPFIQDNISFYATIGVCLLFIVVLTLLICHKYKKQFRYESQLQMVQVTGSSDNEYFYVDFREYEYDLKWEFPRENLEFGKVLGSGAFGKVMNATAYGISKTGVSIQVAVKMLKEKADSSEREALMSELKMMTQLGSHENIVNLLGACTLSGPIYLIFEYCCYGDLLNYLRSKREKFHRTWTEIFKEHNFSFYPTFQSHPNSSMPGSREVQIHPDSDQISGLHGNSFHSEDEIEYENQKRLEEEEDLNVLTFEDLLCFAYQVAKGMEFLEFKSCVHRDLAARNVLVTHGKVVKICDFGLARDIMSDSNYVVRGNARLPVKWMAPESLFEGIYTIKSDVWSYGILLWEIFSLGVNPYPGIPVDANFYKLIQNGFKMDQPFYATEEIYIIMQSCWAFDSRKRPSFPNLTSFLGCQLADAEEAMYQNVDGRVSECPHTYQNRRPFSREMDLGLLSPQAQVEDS

Here's what some known entries look like.
INSERT INTO measurements (smiles_structure, reading) VALUES
  ('NCCNc1nc2ccccc2c2c(=O)c3cc(Cl)ccc3sc12', '< 51 nM'),
  ('O=c1c2cc(F)ccc2sc2c(Nc3cccnc3)nc3ccccc3c12', '> 1000 nM'),
  ('COc1ccc2sc3c(N)nc4ccccc4c3c(=O)c2c1', '> 1000 nM'),
  ('O=c1c2cc(F)ccc2sc2c(N3CCNCC3)nc3ccc(F)cc3c12', '> 1000 nM'),
  ('Cc1ccc2sc3c(NCc4ccccc4)nc4ccccc4c3c(=O)c2c1', '> 1000 nM'),
  ('NCCCNc1nc2ccc(F)cc2c2c(=O)c3cc(F)ccc3sc12', '> 1000 nM'),
  ('O=c1c2cc(F)ccc2sc2c(-n3ccnc3)nc3ccccc3c12', '> 1000 nM'),
  ('COc1cccc2c(=O)c3c(sc12)c(NCCCN)nc1ccccc13', '< 51 nM');

Prompt line: Lab note: FLT3 (Homo sapiens) assay, enter IC50 for CN(C)CCCNc1nc2ccccc2c2c(=O)c3cc(F)ccc3sc12 here
Response line: > 1000 nM

Prompt line: Lab note: FLT3 (Homo sapiens) assay, enter IC50 for NCCCNc1nc2ccccc2c2c(=O)c3cccc(Cl)c3sc12 here
Response line: < 51 nM

Prompt line: Lab note: FLT3 (Homo sapiens) assay, enter IC50 for COc1cccc2c(=O)c3c(sc12)c(N1CCNCC1)nc1ccccc13 here
Response line: 51 to 200 nM

Prompt line: Lab note: FLT3 (Homo sapiens) assay, enter IC50 for NCCCNc1nc2ccccc2c2c(=O)c3cc(F)cc(Cl)c3sc12 here
Response line: > 1000 nM

Prompt line: Lab note: FLT3 (Homo sapiens) assay, enter IC50 for NCCCNc1nc2ccccc2c2c(=O)c3cccc(F)c3sc12 here
Response line: < 51 nM

Prompt line: Lab note: FLT3 (Homo sapiens) assay, enter IC50 for CCCNc1nc2ccccc2c2c(=O)c3cc(F)ccc3sc12 here
Response line: > 1000 nM

Prompt line: Lab note: FLT3 (Homo sapiens) assay, enter IC50 for NCCCNc1nc2ccccc2c2c(=O)c3cc(C(F)(F)F)ccc3sc12 here
Response line: > 1000 nM

Prompt line: Lab note: FLT3 (Homo sapiens) assay, enter IC50 for CCN1CCN(c2nc3ccccc3c3c(=O)c4cc(F)ccc4sc23)CC1 here
Response line: 201 to 500 nM
